tested target: JAK3 (Homo sapiens)
Sequence (P52333 whole entry): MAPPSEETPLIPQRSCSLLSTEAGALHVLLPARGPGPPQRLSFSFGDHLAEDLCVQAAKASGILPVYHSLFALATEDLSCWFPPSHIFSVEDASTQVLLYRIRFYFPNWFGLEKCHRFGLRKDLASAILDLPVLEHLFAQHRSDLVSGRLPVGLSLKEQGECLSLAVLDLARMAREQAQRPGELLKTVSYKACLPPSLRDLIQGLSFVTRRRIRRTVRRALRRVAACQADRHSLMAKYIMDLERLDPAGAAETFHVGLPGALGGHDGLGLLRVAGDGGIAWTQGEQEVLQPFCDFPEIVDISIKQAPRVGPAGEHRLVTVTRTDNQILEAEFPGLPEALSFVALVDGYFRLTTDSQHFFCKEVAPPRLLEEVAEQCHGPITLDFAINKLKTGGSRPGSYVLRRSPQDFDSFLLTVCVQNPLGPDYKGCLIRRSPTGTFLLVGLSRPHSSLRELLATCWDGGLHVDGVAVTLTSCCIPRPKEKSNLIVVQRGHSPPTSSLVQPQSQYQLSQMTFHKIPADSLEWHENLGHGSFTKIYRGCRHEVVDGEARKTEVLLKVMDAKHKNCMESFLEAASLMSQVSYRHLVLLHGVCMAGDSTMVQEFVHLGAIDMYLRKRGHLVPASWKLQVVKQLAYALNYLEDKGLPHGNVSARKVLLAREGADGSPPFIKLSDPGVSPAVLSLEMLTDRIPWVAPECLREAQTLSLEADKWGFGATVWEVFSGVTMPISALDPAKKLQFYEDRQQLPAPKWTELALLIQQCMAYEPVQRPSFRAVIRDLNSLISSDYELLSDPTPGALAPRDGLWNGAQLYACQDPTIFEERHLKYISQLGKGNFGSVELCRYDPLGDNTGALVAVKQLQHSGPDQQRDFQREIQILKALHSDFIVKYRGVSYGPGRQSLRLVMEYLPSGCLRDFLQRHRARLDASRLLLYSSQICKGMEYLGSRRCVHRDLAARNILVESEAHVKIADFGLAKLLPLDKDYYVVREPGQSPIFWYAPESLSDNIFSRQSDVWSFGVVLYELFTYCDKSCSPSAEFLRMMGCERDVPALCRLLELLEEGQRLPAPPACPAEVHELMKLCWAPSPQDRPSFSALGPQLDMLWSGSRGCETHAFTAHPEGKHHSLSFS
procedure summary: Inhibition of a panel of kinases, in vitro HotSpot kinase assay: JAK3
Format: biochemical
condition info: D-compounds panel data; 1 μM ATP; read-out: IC50 JAK3
property: IC50

compound	IC50
C[C@@H]1[C@H](N2Cc3cc(C4CC4)ccc3C2=O)CCCN1c1cnc(C(N)=O)c(Nc2cnn(C)c2)n1	100 to 1000 nM

Problem: Report IC50 under test system JAK3 (Homo sapiens) for Cc1ncc(Nc2nc(N3CCC[C@@H](NC(=O)c4ccc(C5CC5)cc4F)C3)cnc2C(N)=O)s1 .
Result: 1000 to 10000 nM

Problem: Report IC50 under test system JAK3 (Homo sapiens) for C[C@@H]1[C@H](NC(=O)c2coc(C3CC3)n2)CCCN1c1cnc(C(N)=O)c(Nc2cnn(C)c2)n1 .
Result: 100 to 1000 nM

Problem: Report IC50 under test system JAK3 (Homo sapiens) for C[C@@H]1[C@H](NC(=O)c2ccc(C3CC3)cc2)CCCN1c1cnc(C(N)=O)c(Nc2cc(C3CCN(C)CC3)ns2)n1 .
Result: 100 to 1000 nM
